Target Desc: EHMT2 (Homo sapiens, UniProt Q96KQ7)
Construct: host or cells: MDA-MB-231
Sequence (Q96KQ7 whole entry): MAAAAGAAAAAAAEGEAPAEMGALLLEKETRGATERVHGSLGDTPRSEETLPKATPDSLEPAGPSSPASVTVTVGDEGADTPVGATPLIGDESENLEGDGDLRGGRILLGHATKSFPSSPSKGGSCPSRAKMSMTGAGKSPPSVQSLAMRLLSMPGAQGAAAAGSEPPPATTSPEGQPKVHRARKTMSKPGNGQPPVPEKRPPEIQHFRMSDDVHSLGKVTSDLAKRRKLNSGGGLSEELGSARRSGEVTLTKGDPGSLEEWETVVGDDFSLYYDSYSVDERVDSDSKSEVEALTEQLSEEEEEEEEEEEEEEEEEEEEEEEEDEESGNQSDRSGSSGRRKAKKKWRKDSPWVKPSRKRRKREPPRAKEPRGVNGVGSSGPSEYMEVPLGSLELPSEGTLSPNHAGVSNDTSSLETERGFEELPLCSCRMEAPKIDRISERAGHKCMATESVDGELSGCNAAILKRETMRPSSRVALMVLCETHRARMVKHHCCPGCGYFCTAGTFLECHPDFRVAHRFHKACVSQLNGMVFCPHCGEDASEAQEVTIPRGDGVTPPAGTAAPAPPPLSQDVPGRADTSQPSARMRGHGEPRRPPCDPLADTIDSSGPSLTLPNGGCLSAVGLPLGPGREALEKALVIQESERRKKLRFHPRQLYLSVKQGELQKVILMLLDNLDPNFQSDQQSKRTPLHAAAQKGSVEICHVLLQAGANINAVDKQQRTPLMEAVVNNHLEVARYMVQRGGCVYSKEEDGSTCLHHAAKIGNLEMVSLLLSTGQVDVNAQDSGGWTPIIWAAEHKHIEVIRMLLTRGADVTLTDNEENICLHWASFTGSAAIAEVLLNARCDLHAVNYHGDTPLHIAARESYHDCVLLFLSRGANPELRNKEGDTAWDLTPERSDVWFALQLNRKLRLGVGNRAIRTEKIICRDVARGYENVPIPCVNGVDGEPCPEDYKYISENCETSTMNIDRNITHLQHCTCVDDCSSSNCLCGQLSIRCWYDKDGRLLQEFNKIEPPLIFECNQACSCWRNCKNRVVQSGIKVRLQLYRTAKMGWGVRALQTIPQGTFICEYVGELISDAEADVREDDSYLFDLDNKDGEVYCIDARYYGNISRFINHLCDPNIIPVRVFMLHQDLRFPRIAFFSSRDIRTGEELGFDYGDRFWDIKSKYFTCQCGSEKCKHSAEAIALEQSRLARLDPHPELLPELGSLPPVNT
Test Details: MDA-MB-231 H3K9me2 in-cell Western assay (EHMT2 ICW)
Assay type: cell-based
Experimental Parameters: Table II; MDA-MB-231 H3K9me2 in-cell Western; read-out: EHMT2 ICW (IC50 μM)
Experimental Endpoint: IC50

Compound	Experimental Endpoint	Reading
CNc1ccnc(Nc2ccc(F)c(OCCCN3CCCC3)c2)n1 [Compound 244]	IC50	> 10 µM
COc1ccc(Nc2nccc(N(C)CC3CCOCC3)n2)cc1OCCCN1CCCC1 [Compound 146]	IC50	1 to 10 µM
COCCNc1ccnc(Nc2ccc(OC)c(OCCCN3CCCC3)c2)n1 [Compound 27]	IC50	0.1 to 1 µM
COc1ccc(Nc2nccc(N3CCS(=O)(=O)CC3)n2)cc1OCCCN1CCCC1 [Compound 169]	IC50	> 10 µM
CNc1ncc(C(F)(F)F)c(Nc2ccc(OC)c(OCCCN3CCCC3)c2)n1 [Compound 235]	IC50	> 10 µM
COc1ccc(Nc2nccc(NCc3cc[nH]n3)n2)cc1OCCCN1CCCC1 [Compound 46]	IC50	1 to 10 µM
CCOC(=O)N1CCC(CNc2ccnc(Nc3ccc(OC)c(OCCCN4CCCC4)c3)n2)CC1 [Compound 203]	IC50	0.1 to 1 µM
COc1ccc(Nc2nccc(N3CCc4nc[nH]c(=O)c4C3)n2)cc1OCCCN1CCCC1 [Compound 134]	IC50	> 10 µM
COc1ccc(Nc2nccc(NCC3CCCC3)n2)cc1OCCCN1CCCC1 [Compound 34]	IC50	0.1 to 1 µM
COc1ccc(Nc2nccc(NCC3CCN(C(C)=O)CC3)n2)cc1OC(C)CCN1CCCC1 (stereo not shown) [Compound 195]	IC50	1 to 10 µM
